Where do these numbers come from? They come from PubChem BioAssay (NCI).

Give GI50 for every item shown.
# System: IGROV1 ovarian
# assay remarks: NCI tumour cell line growth inhibition, 48 h
Where a SMILES comes first, the peptide text is derived from it. The star is where a group is joined. Palmitoyl = CCCCCCCCCCCCCCCC(=O)*

// sample COc1ccc(CNc2c3ccccc3nc3ccccc23)cc1F , its GI50 was 2.82 µM

// sample COc1ccc(Cl)cc1NC(=O)c1ccc(NC2=C(Cl)C(=O)N(Cc3ccccc3)C2=O)cc1 , its GI50 was > 100 µM

// sample NC(N)=Nc1nc2ccccc2o1 , its GI50 was > 100 µM

// sample CNCCCNc1ccnc2cc(Cl)ccc12 , its GI50 was 18.8 µM

// sample Nc1c(C(=O)Nc2ccccn2)sc2nc3c(cc12)C(=O)CCC3 , its GI50 was 2.23 µM

// sample COc1cccc2c1O/C(=C\c1ccc([N+](=O)[O-])s1)C2=O , its GI50 was 1.91 µM

// sample O=c1[nH]c(-c2cccc(F)c2)cc2cc(F)ccc12 , its GI50 was 0.822 µM

// sample CCCCNCCCNCCCNC(=O)c1csc(-c2csc(CCNC(=O)C(NC(=O)C(C)C(O)C(C)NC(=O)C(NC(=O)c3nc(C(CC(N)=O)NCC(N)C(N)=O)nc(N)c3C)C(OC3OC(CO)C(O)C(O)C3OC3OC(CO)C(O)C(OC(N)=O)C3O)c3cnc[nH]3)C(C)O)n2)n1 (configuration not stated) , its GI50 was 20.9 µM

// sample NC(=O)c1cc(I)ccc1NC(=O)/C=C/c1ccccc1 , its GI50 was 0.917 µM

// sample COc1cc2c(cc1OCCCN1CCN(CCCOc3cc4c(cc3OC)C(=O)N3CC(F)(F)C[C@H]3C=N4)CC1)N=C[C@@H]1CC(F)(F)CN1C2=O , its GI50 was 1.92 µM

// sample NNc1ncnc2nc[nH]c12 , its GI50 was 3.56 µM

// sample COc1ccc(-c2c(C#N)c(N3CCOCC3)nc3[nH]c(=S)[nH]c(=S)c23)cc1OC , its GI50 was > 100 µM

// sample COC(=O)C1=CN(CC2=CC(=O)C(C)=CC2=O)C=C(C(=O)OC)C1c1ccccc1OC , its GI50 was 22.3 µM

// sample COc1ccc(-c2cc(=O)oc3c4c(ccc23)OCN(Cc2ccc(F)cc2)C4)cc1 , its GI50 was 20.5 µM

// sample CCCCCCCCCCCCCCCC(=O)N1CCCC1C(=O)NCC(=O)NC(Cc1ccccc1)C(=O)N1CCCC1C(=O)NC(CO)C(=O)NC(Cc1ccc(O)cc1)C(=O)NC(CCCCN)C(=O)NC(CC(C)C)C(=O)NC(CCCN=C(N)N)C(=O)N1CCCC1C(=O)NCC(N)=O (configuration not stated) (Palmitoyl-PGFPSYKLRPG-NH2; configuration not given here) , its GI50 was 18.6 µM

// sample Cc1nc2c(Br)cc(Br)cc2c(=O)n1-c1nnc(-c2cccc(Cl)c2Cl)c(N)n1 , its GI50 was 15 µM

// sample CCN(CCNS(C)(=O)=O)c1ccc(N)c(C)c1 , its GI50 was 4.3 µM
